Numbers sourced from paper PMC6120666.

test system: THP1Blue cells, NOD2; experiment: THP1Blue NF-κB-SEAP reporter assay, MDP (NOD2); assay type: cell-based; conditions: Homo sapiens; MDP 10 μg/ml; read-out: THP1-Blue NF-κB Inhibition IC50 (MDP)
Reported pIC50 by item:
// returns pIC50 (minus log10 of molar concentration), number only

[
  {
    "Smiles": "CCCS(=O)(=O)Nc1cc(-c2cc(-c3ccc(N4CCNCC4)cc3)cnc2N)cc(F)c1OC",
    "Property": "pIC50",
    "Measured Number": 7.65
  }
]

Moving on to the next compound.
Ask | Bench note: what pIC50 did CCCS(=O)(=O)Nc1cc(-c2cc(-c3ccc(N4CCNCC4)cc3)cnc2N)cc(OC)c1OC show?
Reply | 8.87

---

Biological target: recombinant RIPK2 kinase (Homo sapiens, UniProt O43353)
Sequence (O43353 whole entry): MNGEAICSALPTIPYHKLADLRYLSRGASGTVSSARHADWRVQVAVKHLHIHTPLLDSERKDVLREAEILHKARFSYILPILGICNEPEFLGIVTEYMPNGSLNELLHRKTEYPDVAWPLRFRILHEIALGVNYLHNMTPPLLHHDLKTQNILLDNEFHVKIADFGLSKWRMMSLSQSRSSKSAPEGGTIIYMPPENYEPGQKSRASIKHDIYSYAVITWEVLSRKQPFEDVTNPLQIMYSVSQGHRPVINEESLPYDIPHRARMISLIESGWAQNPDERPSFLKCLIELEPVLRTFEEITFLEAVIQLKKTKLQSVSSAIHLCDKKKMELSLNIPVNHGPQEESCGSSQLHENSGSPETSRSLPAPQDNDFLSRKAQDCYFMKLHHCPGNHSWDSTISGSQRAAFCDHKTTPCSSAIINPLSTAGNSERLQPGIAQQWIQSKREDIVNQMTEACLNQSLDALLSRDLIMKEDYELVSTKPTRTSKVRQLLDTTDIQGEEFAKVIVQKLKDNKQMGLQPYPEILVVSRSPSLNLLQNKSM
Assay: RIPK2 ADPGlo in vitro kinase assay
Conditions: average ± SD of at least three titrations, read-out: IC50, In vitro kinase, RIPK2 ADPGIo
Text: The BIR2 domains of XIAP and cIAP1 were cloned into the pGEX‐6P1 vector and were expressed in E. coli (BL21) cells as a fusion protein with N‐terminal 6xHis (XIAP BIR2 only) and GST tags. Protein expression was induced with IPTG, and cells were lysed using BugBuster protein extraction reagent (#70921, Merck Millipore) according to manufacturer's instructions. […]
Property: IC50 (nM)
Please respond with the number in nM and leave the unit unwritten.

[
  {
    "Smiles": "CCCS(=O)(=O)Nc1cc(F)cc(-c2cc(-c3ccc(N4CCNCC4)cc3)cnc2N)c1",
    "IC50 [nM]": 39.1
  },
  {
    "Smiles": "CCCS(=O)(=O)Nc1cc(-c2cc(-c3ccc(N4CCNCC4)cc3)cnc2N)ccc1O",
    "IC50 [nM]": 53.5
  },
  {
    "Smiles": "CCCS(=O)(=O)Nc1cc(-c2cc(-c3ccc(N4CCNCC4)cc3)cnc2N)cc(OC)c1OC",
    "IC50 [nM]": 19.9
  }
]

Moving on to the next compound.
Ask | Bench note: what IC50 did CCCS(=O)(=O)Nc1cc(-c2cc(-c3ccc(N4CCNCC4)cc3)cnc2N)cc(F)c1OC show?
Reply | 16.3
